target: GABA-A receptor; anion channel; test: Displacement of 35[S]-TBPS from picrotoxinin (GABA-A) receptor of rat neuronal membranes; assay type: cell membranes, Membrane
The following molecules are shown together with reported IC50 values.
Answer in nM, number only, no unit symbol.

Reference set, count: 8
Return reported IC50; argument: CC(C)C1(C(C)C)CCOC1=O
220

Return reported IC50; argument: C[C@H]1CC[C@H](C)C12CCOC2=O
200

Return reported IC50; argument: CCC1(C(C)(C)C)CCOC1=O (centres undefined)
310

Return reported IC50; argument: CC(C)C1(C)CCOC1=O (centres undefined)
740

Return reported IC50; argument: C[C@H]1CC12CCOC2=O (some centres undefined)
7170

Return reported IC50; argument: CCC1(C)CCOC1=O (centres undefined)
2280

Return reported IC50; argument: CC1(C)CC12CCOC2=O (centres undefined)
1140

Return reported IC50; argument: C[C@@H]1CC[C@H](C)C12CCOC2=O (some centres undefined)
780

***
Return reported IC50; argument: C[C@@H]1CC12CCOC2=O (some centres undefined)
3410

Return reported IC50; argument: CC1CCCC12CCOC2=O (centres undefined)
680

---

experiment: Toxic dose at which 50% of the mice failed the rotarod neurotoxicity test; format: toxicity; settings: mouse, in vivo
VALUE TYPE: TD50

Return reported TD50; argument: CC1CCCC12CCOC2=O (configuration not stated)
> 500 mg/kg

Return reported TD50; argument: C[C@@H]1CC12CCOC2=O (some centres not stated)
> 500 mg/kg

Return reported TD50; argument: CC1(C)CCOC1=O
> 500 mg/kg

Return reported TD50; argument: CC1(C)CCCC12CCOC2=O (configuration not stated)
10 mg/kg

Return reported TD50; argument: CCC1(C(C)C)CCOC1=O (configuration not stated)
> 300 mg/kg

Return reported TD50; argument: O=C1OCCC12CC2
> 500 mg/kg

The record that follows has no TD50 shown yet.
Return reported TD50; argument: C[C@H]1CC12CCOC2=O (some centres not stated)
> 300 mg/kg

---

The following molecules are shown together with reported TD50 values.
assay: […] dose at which 50% of the mice have clonic convulsions; settings: mouse, in vivo; read-out: CD50 (the source's name)
Answer in mg/kg, number only, no unit symbol.

Reference set, count: 2
Return reported TD50; argument: C[C@H]1CC[C@H](C)C12CCOC2=O
198

Return reported TD50; argument: CCC1(C(C)(C)C)CCOC1=O (stereo not drawn)
133

***
Return reported TD50; argument: CC(C)C1(C(C)C)CCOC1=O
137

---

target: GABA-A receptor; anion channel; test: Dissociation constant from displacement of 35[S]-TBPS binding from picrotoxinin (GABA-A) receptor of rat cerebral cortex
VALUE TYPE: pKd
Reminder that pKd is minus the log10 of a molar concentration.

Reference set, count: 5
Return reported pKd; argument: CC(C)C1(C)CCOC1=O (stereo unspecified)
7.33

Return reported pKd; argument: O=C1OCCC12CCCC2
7.31

Return reported pKd; argument: C[C@@H]1CC[C@H](C)C12CCOC2=O (stereo partly specified)
7.41

Return reported pKd; argument: CC1(C)CC12CCOC2=O (stereo unspecified)
7.45

Return reported pKd; argument: CC1CCCC12CCOC2=O (stereo unspecified)
7.40

***
Return reported pKd; argument: CC(C)C1(C(C)C)CCOC1=O
7.48
